# assay-remarks: reversal of MRP1-mediated doxorubicin resistance, pilot screen, H69AR cells, doxorubicin co-treatment (AID 601)
# protocol-conditions: H69AR cells + 2 uM doxorubicin, CellTiter-Glo, 72 h; measured here: viability with 2 uM doxorubicin; at 10 µM; stronger effect = lower value
endpoint-name: viability (%)
Enter your answer as a number in %; do not include the unit.

In [3]: df
Out[3]:
                           structure_smiles  result_unit  reading
0  CCCn1c(=O)c2ccccc2n2c(SCCOc3ccccc3F)nnc12            %     70.7
1      CC1CCN(C(=O)CCNS(=O)(=O)c2ccccc2)CC1            %       92
2      Cc1cc(-c2ccc(F)cc2)nc2cc(C(N)=O)nn12            %     89.6

[Q] Record request: viability value, item CCOC(=O)c1[nH]nc(-c2c(O)cc(C)cc2O)c1-c1csc(C)n1
[A] 89.8

[Q] Query CCOCC(=O)Nc1ccc(S(=O)(=O)N2CCOCC2)cc1 next
[A] 76.1

[Q] Query O=S(=O)(c1cc(Cl)ccc1Br)N1CCOCC1 next
[A] 90.4
